Biological target: CDK9 (Homo sapiens (Human))
Sequence (P50750 whole entry): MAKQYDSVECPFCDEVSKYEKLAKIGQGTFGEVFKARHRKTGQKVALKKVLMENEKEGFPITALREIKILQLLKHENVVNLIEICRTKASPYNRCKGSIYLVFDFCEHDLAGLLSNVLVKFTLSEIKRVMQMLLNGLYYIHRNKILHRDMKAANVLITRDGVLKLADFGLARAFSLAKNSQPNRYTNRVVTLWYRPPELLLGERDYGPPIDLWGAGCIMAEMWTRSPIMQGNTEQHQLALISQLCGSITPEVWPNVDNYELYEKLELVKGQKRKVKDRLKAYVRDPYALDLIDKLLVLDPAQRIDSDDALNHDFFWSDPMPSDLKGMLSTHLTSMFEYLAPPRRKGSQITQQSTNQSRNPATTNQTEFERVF
Sequence (O60563 whole entry partner): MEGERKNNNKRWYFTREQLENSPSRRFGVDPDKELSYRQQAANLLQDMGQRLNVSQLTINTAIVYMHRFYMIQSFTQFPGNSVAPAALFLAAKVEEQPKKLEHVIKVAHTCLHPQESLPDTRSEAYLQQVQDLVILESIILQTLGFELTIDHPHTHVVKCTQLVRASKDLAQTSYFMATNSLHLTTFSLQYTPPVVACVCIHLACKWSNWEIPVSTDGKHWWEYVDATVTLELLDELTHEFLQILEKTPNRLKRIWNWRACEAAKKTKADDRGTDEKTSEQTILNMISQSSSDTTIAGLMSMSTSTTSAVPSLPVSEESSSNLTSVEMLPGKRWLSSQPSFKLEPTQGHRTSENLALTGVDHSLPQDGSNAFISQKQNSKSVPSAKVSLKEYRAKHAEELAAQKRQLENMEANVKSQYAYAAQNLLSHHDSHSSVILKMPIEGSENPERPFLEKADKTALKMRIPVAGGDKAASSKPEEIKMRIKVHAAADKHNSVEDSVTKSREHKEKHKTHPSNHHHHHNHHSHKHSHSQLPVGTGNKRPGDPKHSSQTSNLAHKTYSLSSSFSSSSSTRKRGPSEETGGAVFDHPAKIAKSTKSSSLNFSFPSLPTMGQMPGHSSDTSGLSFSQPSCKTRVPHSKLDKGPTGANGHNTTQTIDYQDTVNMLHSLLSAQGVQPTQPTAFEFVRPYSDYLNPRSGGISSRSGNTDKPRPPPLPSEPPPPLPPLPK
Assay: In vitro kinase inhibition, KinaseProfiler service of Millipore, residual activity
Type: biochemical
Settings: residual activity at 100 nM compound
Source text: In vitro kinase assay analysis may be performed using standard techniques described in the art. These techniques are also used by commercial services providers in order to offer in vitro kinase activity assay services, e.g. the assays offered by Millipore Inc. (worldwide website www(dot)millipore.com), ProQinase GmbH (worldwide website www(dot)proqinase.de) and others. […]
measurement.name: CDK9 100 nM (RA in %)

>>> reported_value("COc1cc(F)ccc1-c1ccnc(NC(=O)C(C)c2ccncc2)c1 (stereo not drawn) [Example 16]")
7
>>> reported_value("COc1ccc(F)cc1-c1ccnc(NC(=O)C(C)c2cccs2)c1 (stereo not drawn) [Example 17]")
97
>>> reported_value("COc1cc(F)ccc1-c1ccnc(NC(=O)C(C)c2ccncc2)c1 (stereo not drawn) [Example 15]")
64
>>> reported_value("COc1cc(F)ccc1-c1ccnc(NC(=O)[C@H]2CCC[C@H](NC(C)=O)C2)c1 (relative stereo) [Example 26]")
5

I: COc1ccc(F)cc1-c1ccnc(NC(=O)C(C)c2cccs2)c1 (stereo not drawn) [Example 18]
II: COc1cc(F)ccc1-c1ccnc(NC(=O)[C@H]2CCC[C@H](NC(C)=O)C2)c1 (relative stereo) [Example 25]
# query: argmin of CDK9 100 nM (RA in %) over I and II API: response body contains the label of the selected item.
I

====

Biological target: IRAK1 (Homo sapiens (Human), UniProt P51617)
Sequence (P51617 whole entry): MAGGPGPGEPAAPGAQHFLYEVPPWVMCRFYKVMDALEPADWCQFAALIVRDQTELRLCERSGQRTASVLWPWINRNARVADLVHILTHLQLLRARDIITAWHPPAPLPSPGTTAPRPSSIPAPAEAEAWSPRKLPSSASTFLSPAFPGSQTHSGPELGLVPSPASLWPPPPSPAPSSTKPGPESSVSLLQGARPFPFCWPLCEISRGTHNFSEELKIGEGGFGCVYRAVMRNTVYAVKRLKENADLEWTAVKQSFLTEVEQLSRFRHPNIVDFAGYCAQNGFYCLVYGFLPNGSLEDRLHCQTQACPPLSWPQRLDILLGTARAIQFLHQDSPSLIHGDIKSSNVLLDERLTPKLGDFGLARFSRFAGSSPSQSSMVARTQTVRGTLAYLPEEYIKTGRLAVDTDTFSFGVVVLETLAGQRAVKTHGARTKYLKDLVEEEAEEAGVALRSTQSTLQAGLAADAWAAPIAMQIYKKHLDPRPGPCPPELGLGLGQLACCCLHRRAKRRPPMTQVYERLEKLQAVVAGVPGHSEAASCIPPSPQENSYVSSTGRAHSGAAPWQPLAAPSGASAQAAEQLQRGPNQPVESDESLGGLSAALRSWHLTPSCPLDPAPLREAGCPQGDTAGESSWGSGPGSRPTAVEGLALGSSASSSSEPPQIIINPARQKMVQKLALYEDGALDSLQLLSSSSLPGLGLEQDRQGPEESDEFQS
pIC50: −log10 of the molar value.
measurement.name: pIC50

Report the value of pIC50 obtained on IRAK1 (Homo sapiens (Human), UniProt P51617) for COc1cc(F)ccc1-c1ccnc(NC(=O)[C@H]2CCC[C@@H](NC(C)=O)C2)c1 (relative stereo) [Example 33] .
< 5.30

====

Target: CDK3/CycE (Homo sapiens (Human), UniProt Q00526)
Sequence (Q00526 whole entry): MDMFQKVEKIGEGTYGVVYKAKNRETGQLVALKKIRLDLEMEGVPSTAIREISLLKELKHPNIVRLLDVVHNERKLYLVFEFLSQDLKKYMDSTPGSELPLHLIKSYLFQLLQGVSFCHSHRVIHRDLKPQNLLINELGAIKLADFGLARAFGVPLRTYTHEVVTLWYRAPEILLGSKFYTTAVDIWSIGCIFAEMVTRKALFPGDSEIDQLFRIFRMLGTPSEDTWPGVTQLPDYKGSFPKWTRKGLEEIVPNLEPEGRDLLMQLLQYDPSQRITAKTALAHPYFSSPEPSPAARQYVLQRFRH
Sequence (P24864 whole entry partner): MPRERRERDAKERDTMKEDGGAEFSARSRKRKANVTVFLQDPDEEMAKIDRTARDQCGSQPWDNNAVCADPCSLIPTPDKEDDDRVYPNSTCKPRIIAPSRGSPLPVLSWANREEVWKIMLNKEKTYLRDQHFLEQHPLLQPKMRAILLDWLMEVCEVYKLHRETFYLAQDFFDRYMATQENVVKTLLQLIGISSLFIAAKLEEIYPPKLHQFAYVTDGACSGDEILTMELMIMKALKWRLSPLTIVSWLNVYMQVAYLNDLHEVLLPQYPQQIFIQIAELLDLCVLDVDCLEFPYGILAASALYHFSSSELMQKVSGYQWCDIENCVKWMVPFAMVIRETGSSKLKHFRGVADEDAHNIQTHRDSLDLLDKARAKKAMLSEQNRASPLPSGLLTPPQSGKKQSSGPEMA
Assay: Kinase activity assay IC50 profile
Conditions: read-out: IC50 CDK3/E
measurement.name: pIC50
By convention, pIC50 is the negative base-10 log of a molar concentration.

Determine its reported pIC50: COc1cc(F)ccc1-c1ccnc(NC(=O)[C@H]2CCC[C@@H](NC(C)=O)C2)c1 (relative stereo)
6.66

====

Biological target: CDK9 (Homo sapiens (Human))
Assay: In vitro kinase inhibition, KinaseProfiler service of Millipore, residual activity
Format: biochemical
Conditions: residual activity at 10 nM compound; read-out: CDK9 10 nM (RA in %)
measurement.name: remaining activity at 0.01 µM (%)

Some solved cases for reference:
>>> reported_value("COc1ccc([C@H](C)C(=O)Nc2cc(-c3ccc(F)cc3OC)ccn2)cc1")
36
>>> reported_value("COc1cc(F)ccc1-c1ccnc(NC(=O)C(C)c2ccc(N3CCN(C)CC3)cc2)c1 (stereo not shown)")
65
>>> reported_value("COc1cc(F)ccc1-c1ccnc(NC(=O)[C@H]2CC[C@@H](N)CC2)c1")
59
>>> reported_value("COc1ccc(CC(=O)Nc2cc(-c3ccc(F)cc3OC)ccn2)cn1")
25
>>> reported_value("COc1cc(F)ccc1-c1ccnc(NC(=O)[C@H]2CC[C@@H](NC(C)=O)C2)c1")
38

A: COc1cc(F)ccc1-c1ccnc(NC(=O)Cc2ccccc2)c1
B: COc1cc(F)ccc1-c1ccnc(NC(=O)[C@@H]2CC[C@H](NC(C)=O)C2)c1
Identify the entry with the larger remaining activity at 0.01 µM. Options: A and B State your choice using its label.
A
(A: 78%, B: 50%)
